# tested-system: hP2X7 (Homo sapiens, UniProt Q99572)
# Construct: expressed in transfected cells; host or cells: 1321N1 astrocytoma cells
# Sequence (Q99572 1-595): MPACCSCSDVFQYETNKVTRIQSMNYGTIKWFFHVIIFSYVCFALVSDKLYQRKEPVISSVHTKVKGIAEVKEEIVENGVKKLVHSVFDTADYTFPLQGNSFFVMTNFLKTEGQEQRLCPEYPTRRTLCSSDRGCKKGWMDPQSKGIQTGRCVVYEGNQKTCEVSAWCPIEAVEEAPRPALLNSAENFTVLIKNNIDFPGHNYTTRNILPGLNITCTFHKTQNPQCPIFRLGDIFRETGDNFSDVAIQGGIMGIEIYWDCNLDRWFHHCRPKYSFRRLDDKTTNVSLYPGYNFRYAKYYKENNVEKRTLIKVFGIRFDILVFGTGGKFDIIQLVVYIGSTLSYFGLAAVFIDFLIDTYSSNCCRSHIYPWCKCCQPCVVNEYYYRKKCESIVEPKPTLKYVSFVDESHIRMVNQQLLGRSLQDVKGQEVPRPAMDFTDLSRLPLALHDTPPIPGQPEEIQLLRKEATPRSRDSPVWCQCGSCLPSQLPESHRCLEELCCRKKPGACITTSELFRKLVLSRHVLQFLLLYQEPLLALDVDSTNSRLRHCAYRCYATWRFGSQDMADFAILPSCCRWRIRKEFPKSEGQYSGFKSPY
# run-description: P2X7 antagonism: ligand-induced Ca2+ flux in 1321N1 astrocytoma cells overexpressing hP2X7
# Type: cell-based
# cond: pIC50 = -log(IC50), read-out: hP2RX7pIC50 (mean pIC50 values) (converted)
Please respond with label 1 when measured IC50 is strictly beneath 40 nM, and with label 0 in all other cases.

O=C(NCC(c1ccc(C(F)(F)F)nc1)N1CCC(O)(c2ccc(Cl)cc2)CC1)c1cccc2ncccc12 (stereo not shown) [Compound 29]
label 0

Query string: Is IC50 of CC(=O)N1CCN(c2ncc(C(CNC(=O)c3cccc4nc(N5CCOCC5)ccc34)N3CCC(F)(F)CC3)cn2)CC1 (stereo not shown) [Compound 250] strictly below 40 nM?
Result string: label 0

Query string: Likewise for O=C(NCC(c1cnc(C(F)(F)F)nc1)N1CCCCC1)c1cccc2ncccc12 (stereo not shown) [Compound 35] ?
Result string: label 1

Query string: Likewise for CC(C)(C)OC(=O)N1CCN(c2ccc3c(C(=O)NCC(c4cnc(C(F)(F)F)nc4)N4CCCC(F)(F)C4)cccc3n2)CC1 (stereo not shown) [Compound 106] ?
Result string: label 0

Query string: Likewise for O=C(NCC(c1cnc(C(F)(F)F)nc1)N1CCC(F)(F)CC1)c1cccc2ncccc12 (single isomer, unassigned) [Compound 47] ?
Result string: label 1

Query string: Likewise for CCN(CC)c1ccc2c(C(=O)NCC(c3cnc(C(F)(F)F)nc3)N3CCOCC3)cccc2n1 (stereo not shown) [Compound 279] ?
Result string: label 0

Query string: Likewise for O=C(NCC(c1cnc(C(F)(F)F)nc1)N1CCC(F)(F)CC1)c1cccc2nc(NCCCO)ccc12 (stereo not shown) [Compound 40] ?
Result string: label 1
